Hello, the source for this data is patent US20240343814A1, in case you need it.

- test-target: Recombinant human his-tagged IGF 1R extracellular domain protein (human) (UniProt P08069)
- method-description: SPR, captured IgG, IGF-1R ECD-his analyte, dissociation pH 7.4
pKd: −log10 of the molar value.

# binder, pKd
records = [
    ("VRDN-02551 (antibody, V domains shown) VH: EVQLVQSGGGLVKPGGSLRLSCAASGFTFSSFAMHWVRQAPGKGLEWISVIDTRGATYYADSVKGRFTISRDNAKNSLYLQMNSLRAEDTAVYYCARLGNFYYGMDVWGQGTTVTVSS VL: EIVLTQSPGTLSVSPGERATLSCRASQSIGSSLHWYQQKPGQAPRLLIKYASQSLSGIPDRFSGSGSGTDFTLTISRLEPEDFAVYYCHQSSRLHHTFGQGTKVEIK", 9.11),
    ("VRDN-02537 (antibody, V domains shown) VH: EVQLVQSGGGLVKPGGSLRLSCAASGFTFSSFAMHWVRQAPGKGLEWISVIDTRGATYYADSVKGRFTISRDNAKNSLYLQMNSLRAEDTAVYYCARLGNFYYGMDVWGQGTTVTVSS VL: EIVLTQSPGTLSVSPGERATLSCRASQSIGSSHHWYQQKPGQAPRLLIKYASQSLSGIPDRFSGSGSGTDFTLTISRLEPEDFAVYYCHQSSRLPHTFGQGTKVEIK", 9.10),
]
